target: T1, human PD-L1, full-length, on CHO cells (human, UniProt Q9NZQ7 19-290); assay: flow cytometry, CHO cells stably expressing PD-L1
T1 construct: also called huPD-L1; CD274
T1 sequence (Q9NZQ7 19-290): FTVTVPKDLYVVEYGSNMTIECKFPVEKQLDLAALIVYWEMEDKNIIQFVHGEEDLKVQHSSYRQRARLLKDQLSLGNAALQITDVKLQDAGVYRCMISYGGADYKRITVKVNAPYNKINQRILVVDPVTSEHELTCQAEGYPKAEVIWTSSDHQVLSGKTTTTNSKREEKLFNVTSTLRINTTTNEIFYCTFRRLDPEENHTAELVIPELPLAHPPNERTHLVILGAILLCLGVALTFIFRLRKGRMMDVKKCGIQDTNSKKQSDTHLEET
What MFI at 33.3 nM was measured for each of the following?
The answer should read as a number with its unit following.

Reported MFI at 33.3 nM of variant CD80 IgV-Fc V68M (Fc fusion, not shown: small tags and cut ends; a dimerising Fc or GST) VIHVTKEVKEVATLSCGHNVSVEELAQTRIYWQKEKKMVLTMMSGDMNIWPEYKNRTIFDITNNLSIMILALRPSDEGTYECVVLKYEKDAFKREHLAEVTLSVKAD : 118 MFI

Reported MFI at 33.3 nM of variant CD80 IgV-Fc M47V/V68M (Fc fusion, not shown: small tags and cut ends; a dimerising Fc or GST) VIHVTKEVKEVATLSCGHNVSVEELAQTRIYWQKEKKMVLTMMSGDVNIWPEYKNRTIFDITNNLSIMILALRPSDEGTYECVVLKYEKDAFKREHLAEVTLSVKAD : 4290 MFI

Reported MFI at 33.3 nM of variant CD80 IgV-Fc E35D/M47L/V68M (Fc fusion, not shown: small tags and cut ends; a dimerising Fc or GST) VIHVTKEVKEVATLSCGHNVSVEELAQTRIYWQKDKKMVLTMMSGDLNIWPEYKNRTIFDITNNLSIMILALRPSDEGTYECVVLKYEKDAFKREHLAEVTLSVKAD : 27900 MFI

Reported MFI at 33.3 nM of variant CD80 IgV-Fc E35D/M47L/V68M/L85Q (Fc fusion, not shown: small tags and cut ends; a dimerising Fc or GST) VIHVTKEVKEVATLSCGHNVSVEELAQTRIYWQKDKKMVLTMMSGDLNIWPEYKNRTIFDITNNLSIMILALRPSDEGTYECVVQKYEKDAFKREHLAEVTLSVKAD : 15300 MFI

Reported MFI at 33.3 nM of variant CD80 IgV-Fc L85Q (Fc fusion, not shown: small tags and cut ends; a dimerising Fc or GST) VIHVTKEVKEVATLSCGHNVSVEELAQTRIYWQKEKKMVLTMMSGDMNIWPEYKNRTIFDITNNLSIVILALRPSDEGTYECVVQKYEKDAFKREHLAEVTLSVKAD : 97 MFI

Reported MFI at 33.3 nM of variant CD80 IgV-Fc M47V (Fc fusion, not shown: small tags and cut ends; a dimerising Fc or GST) VIHVTKEVKEVATLSCGHNVSVEELAQTRIYWQKEKKMVLTMMSGDVNIWPEYKNRTIFDITNNLSIVILALRPSDEGTYECVVLKYEKDAFKREHLAEVTLSVKAD : 2320 MFI

Reported MFI at 33.3 nM of variant CD80 IgV-Fc D46V/M47L (Fc fusion, not shown: small tags and cut ends; a dimerising Fc or GST) VIHVTKEVKEVATLSCGHNVSVEELAQTRIYWQKEKKMVLTMMSGVLNIWPEYKNRTIFDITNNLSIVILALRPSDEGTYECVVLKYEKDAFKREHLAEVTLSVKAD : 3900 MFI

Reported MFI at 33.3 nM of variant CD80 IgV-Fc E35D/D46V/V68M (Fc fusion, not shown: small tags and cut ends; a dimerising Fc or GST) VIHVTKEVKEVATLSCGHNVSVEELAQTRIYWQKDKKMVLTMMSGVMNIWPEYKNRTIFDITNNLSIMILALRPSDEGTYECVVLKYEKDAFKREHLAEVTLSVKAD : 26100 MFI

Reported MFI at 33.3 nM of variant CD80 IgV-Fc M47L/L85Q (Fc fusion, not shown: small tags and cut ends; a dimerising Fc or GST) VIHVTKEVKEVATLSCGHNVSVEELAQTRIYWQKEKKMVLTMMSGDLNIWPEYKNRTIFDITNNLSIVILALRPSDEGTYECVVQKYEKDAFKREHLAEVTLSVKAD : 5800 MFI

Reported MFI at 33.3 nM of variant CD80 IgV-Fc D46V/V68M (Fc fusion, not shown: small tags and cut ends; a dimerising Fc or GST) VIHVTKEVKEVATLSCGHNVSVEELAQTRIYWQKEKKMVLTMMSGVMNIWPEYKNRTIFDITNNLSIMILALRPSDEGTYECVVLKYEKDAFKREHLAEVTLSVKAD : 2270 MFI

Reported MFI at 33.3 nM of variant CD80 IgV-Fc E35D/D46V/L85Q (Fc fusion, not shown: small tags and cut ends; a dimerising Fc or GST) VIHVTKEVKEVATLSCGHNVSVEELAQTRIYWQKDKKMVLTMMSGVMNIWPEYKNRTIFDITNNLSIVILALRPSDEGTYECVVQKYEKDAFKREHLAEVTLSVKAD : 4040 MFI

Reported MFI at 33.3 nM of variant CD80 IgV-Fc E35D/D46V (Fc fusion, not shown: small tags and cut ends; a dimerising Fc or GST) VIHVTKEVKEVATLSCGHNVSVEELAQTRIYWQKDKKMVLTMMSGVMNIWPEYKNRTIFDITNNLSIVILALRPSDEGTYECVVLKYEKDAFKREHLAEVTLSVKAD : 3970 MFI

Reported MFI at 33.3 nM of variant CD80 IgV-Fc E35D/D46V/V68M/L85Q (Fc fusion, not shown: small tags and cut ends; a dimerising Fc or GST) VIHVTKEVKEVATLSCGHNVSVEELAQTRIYWQKDKKMVLTMMSGVMNIWPEYKNRTIFDITNNLSIMILALRPSDEGTYECVVQKYEKDAFKREHLAEVTLSVKAD : 23600 MFI

Reported MFI at 33.3 nM of variant CD80 IgV-Fc K89N (Fc fusion, not shown: small tags and cut ends; a dimerising Fc or GST) VIHVTKEVKEVATLSCGHNVSVEELAQTRIYWQKEKKMVLTMMSGDMNIWPEYKNRTIFDITNNLSIVILALRPSDEGTYECVVLKYENDAFKREHLAEVTLSVKAD : 52.8 MFI
